Catalogue of Activity values
Species: Homo sapiens
assay.info: Inhibition of transglutaminase in human keratinocytes assessed as mean transglutaminase activity level at 1.65 10^-7M in presence of 10 uM retinal relative to retinal alone
Assay type: cell-based
Parameters: scale not given: the % may be the effect or the level left
Give the quantity in %, number only.

INSERT INTO measurements (compound, quantity_kind, measured_number) VALUES
  ('CCCCCCCCCCCCCC(=O)O', 'Activity', 88.9),
  ('CC(C)CCCCCCCCCCCCCCC(=O)O', 'Activity', 95);

Next item in the queue.
Ask | For the compound shown here, CCCCCCC(O)CCCCCCCCCCC(=O)O (stereo not drawn) , give the reported Activity.
Reply | 90.2
